# PROTOCOL_SUMMARY: Phase 1 single ascending dose (SAD) pharmacokinetics, fasted
# Format: in vivo, human
# STUDY_CONDITIONS: male, human, plasma; single oral 3 mg/kg, fasted; geometric mean (%CV)
ASSAY_READOUT: Cmax (ng/mL)
Field format: number, assumed ng/mL, no unit text.

response.value for C[C@@H]1C[C@H]2[C@@H]3CCC4=CC(=O)C=C[C@]4(C)C3=CC[C@]2(C)[C@@]1(O)C(=O)CO (field: Cmax) = 305

====

# Test system: white blood cells and subsets (lymphocytes, neutrophils, eosinophils)
# PROTOCOL_SUMMARY: Differential white blood cell counts (immune suppression), MAD
# Assay type: in vivo, human
# STUDY_CONDITIONS: MAD 9.0 mg/kg; Day 21 follow-up; mean
ASSAY_READOUT: Eosinophils

Short answer for C[C@@H]1C[C@H]2[C@@H]3CCC4=CC(=O)C=C[C@]4(C)C3=CC[C@]2(C)[C@@]1(O)C(=O)CO : Eosinophils was 0.12 10^9/L

====

# PROTOCOL_SUMMARY: SAD food effect cohort (8 mg/kg with high fat/high calorie meal) pharmacokinetics
# Assay type: in vivo, human
# STUDY_CONDITIONS: human, plasma; single oral 8 mg/kg, fed; geometric mean (%CV)
ASSAY_READOUT: AUC(0-t) (ng·h/mL)
Please respond with the number in ng·h/mL and leave the unit unwritten.

AUC(0-t) recorded for this compound, C[C@@H]1C[C@H]2[C@@H]3CCC4=CC(=O)C=C[C@]4(C)C3=CC[C@]2(C)[C@@]1(O)C(=O)CO , is 10100

====

# PROTOCOL_SUMMARY: Phase 1 single ascending dose (SAD) pharmacokinetics, fasted
# Type: in vivo, human
# STUDY_CONDITIONS: male, human, plasma, oral; across single 0.1 to 20 mg/kg doses, fasted; read-out: CL/F, range of geometric mean values
ASSAY_READOUT: CL/F

C[C@@H]1C[C@H]2[C@@H]3CCC4=CC(=O)C=C[C@]4(C)C3=CC[C@]2(C)[C@@]1(O)C(=O)CO yielded CL/F of 29.3 to 38.5 mL/min/kg

====

# PROTOCOL_SUMMARY: Phase 1 single ascending dose (SAD) pharmacokinetics, fasted
# Format: in vivo, human
# STUDY_CONDITIONS: male, human, plasma; single oral 0.1 mg/kg, fasted; geometric mean (%CV); read-out: λz (converted)
ASSAY_READOUT: k el (s⁻¹)
Report the figure in s⁻¹ without appending any unit label.

Documented k el of C[C@@H]1C[C@H]2[C@@H]3CCC4=CC(=O)C=C[C@]4(C)C3=CC[C@]2(C)[C@@]1(O)C(=O)CO : 0.000113

====

# Test system: white blood cells and subsets (lymphocytes, neutrophils, eosinophils)
# PROTOCOL_SUMMARY: Differential white blood cell counts (immune suppression), MAD
# Assay type: in vivo, human
# STUDY_CONDITIONS: MAD 20.0 mg/kg; Day 21 follow-up; mean
ASSAY_READOUT: Eosinophils

The reported value for C[C@@H]1C[C@H]2[C@@H]3CCC4=CC(=O)C=C[C@]4(C)C3=CC[C@]2(C)[C@@]1(O)C(=O)CO in terms of Eosinophils is 0.26 10^9/L

====

# Test system: white blood cells and subsets (lymphocytes, neutrophils, eosinophils)
# PROTOCOL_SUMMARY: Differential white blood cell counts (immune suppression), MAD
# Format: in vivo, human
# STUDY_CONDITIONS: MAD 1.0 mg/kg; Day 3 predose; mean
ASSAY_READOUT: Eosinophils

Entry C[C@@H]1C[C@H]2[C@@H]3CCC4=CC(=O)C=C[C@]4(C)C3=CC[C@]2(C)[C@@]1(O)C(=O)CO [vamorolone] : Eosinophils on white blood cells and subsets (lymphocytes, neutrophils, eosinophils) = 0.17 10^9/L

====

# PROTOCOL_SUMMARY: Phase 1 single ascending dose (SAD) pharmacokinetics, fasted
# Format: in vivo, human
# STUDY_CONDITIONS: male, human, plasma; single oral 20 mg/kg, fasted; geometric mean (%CV)
ASSAY_READOUT: AUC(0-inf) (ng·h/mL)
// note: answer is a bare numeric in ng·h/mL

Record C[C@@H]1C[C@H]2[C@@H]3CCC4=CC(=O)C=C[C@]4(C)C3=CC[C@]2(C)[C@@]1(O)C(=O)CO . Reported AUC(0-inf): 8650

====

# PROTOCOL_SUMMARY: Phase 1 single ascending dose (SAD) pharmacokinetics, fasted
# Assay type: in vivo, human
# STUDY_CONDITIONS: male, human, plasma; single oral 0.3 mg/kg, fasted; geometric mean (%CV); read-out: Vz/F
ASSAY_READOUT: Vd/F (L/kg)
API: value field is a number in L/kg; no unit string.

Entry C[C@@H]1C[C@H]2[C@@H]3CCC4=CC(=O)C=C[C@]4(C)C3=CC[C@]2(C)[C@@]1(O)C(=O)CO [vamorolone] ; Vd/F = 4.07

====

# PROTOCOL_SUMMARY: Phase 1 single ascending dose (SAD) pharmacokinetics, fasted
# Assay type: in vivo, human
# STUDY_CONDITIONS: male, human, plasma; single oral 0.1 mg/kg, fasted; geometric mean (%CV); read-out: Vz/F
ASSAY_READOUT: Vd/F
# number then unit; no other words

The compound C[C@@H]1C[C@H]2[C@@H]3CCC4=CC(=O)C=C[C@]4(C)C3=CC[C@]2(C)[C@@]1(O)C(=O)CO showed Vd/F equal to 4.98 L/kg

====

# PROTOCOL_SUMMARY: Phase 1 single ascending dose (SAD) pharmacokinetics, fasted
# Type: in vivo, human
# STUDY_CONDITIONS: male, human, plasma; single oral 8 mg/kg, fasted; geometric mean (%CV)
ASSAY_READOUT: Cmax (ng/mL)
Just the number please, in ng/mL, no unit attached.

Lab note: C[C@@H]1C[C@H]2[C@@H]3CCC4=CC(=O)C=C[C@]4(C)C3=CC[C@]2(C)[C@@]1(O)C(=O)CO [vamorolone] gave Cmax of 718

====

# PROTOCOL_SUMMARY: Phase 1 single ascending dose (SAD) pharmacokinetics, fasted
# Format: in vivo, human
# STUDY_CONDITIONS: male, human, serum; oral suspension formulation (4% vamorolone by weight); read-out: time of peak serum concentrations
ASSAY_READOUT: Tmax

Note to self: Tmax recorded for C[C@@H]1C[C@H]2[C@@H]3CCC4=CC(=O)C=C[C@]4(C)C3=CC[C@]2(C)[C@@]1(O)C(=O)CO was ~3 h

====

# System: white blood cells and subsets (lymphocytes, neutrophils, eosinophils)
# PROTOCOL_SUMMARY: Differential white blood cell counts (immune suppression), MAD
# Type: in vivo, human
# STUDY_CONDITIONS: MAD 3.0 mg/kg; Day 2 predose; mean
ASSAY_READOUT: Eosinophils

Measured Eosinophils of C[C@@H]1C[C@H]2[C@@H]3CCC4=CC(=O)C=C[C@]4(C)C3=CC[C@]2(C)[C@@]1(O)C(=O)CO : 0.23 10^9/L

====

# PROTOCOL_SUMMARY: Phase 1 single ascending dose (SAD) pharmacokinetics, fasted
# Format: in vivo, human
# STUDY_CONDITIONS: male, human, plasma; single oral 20 mg/kg, fasted; geometric mean (%CV); read-out: CL/F (converted)
ASSAY_READOUT: CL/F

Consider C[C@@H]1C[C@H]2[C@@H]3CCC4=CC(=O)C=C[C@]4(C)C3=CC[C@]2(C)[C@@]1(O)C(=O)CO . Its measured CL/F is 38.5 mL/min/kg

====

# PROTOCOL_SUMMARY: Phase 1 single ascending dose (SAD) pharmacokinetics, fasted
# Assay type: in vivo, human
# STUDY_CONDITIONS: male, human, plasma; single oral 0.3 mg/kg, fasted; geometric mean (%CV); read-out: CL/F (converted)
ASSAY_READOUT: CL/F

Consider C[C@@H]1C[C@H]2[C@@H]3CCC4=CC(=O)C=C[C@]4(C)C3=CC[C@]2(C)[C@@]1(O)C(=O)CO . Its measured CL/F is 29.3 mL/min/kg

====

# PROTOCOL_SUMMARY: Phase 1 single ascending dose (SAD) pharmacokinetics, fasted
# Type: in vivo, human
# STUDY_CONDITIONS: male, human, plasma; single oral 0.3 mg/kg, fasted; geometric mean (%CV); read-out: t½ (converted)
ASSAY_READOUT: half-life (min)
Give your result in min as a bare value.

# half-life (compound: C[C@@H]1C[C@H]2[C@@H]3CCC4=CC(=O)C=C[C@]4(C)C3=CC[C@]2(C)[C@@]1(O)C(=O)CO [vamorolone] ) is 96

====

# Tested on: white blood cells and subsets (lymphocytes, neutrophils, eosinophils)
# PROTOCOL_SUMMARY: Differential white blood cell counts (immune suppression), MAD
# Format: in vivo, human
# STUDY_CONDITIONS: MAD 20.0 mg/kg; Day 7 predose; mean
ASSAY_READOUT: Eosinophils

Record for C[C@@H]1C[C@H]2[C@@H]3CCC4=CC(=O)C=C[C@]4(C)C3=CC[C@]2(C)[C@@]1(O)C(=O)CO under target or system white blood cells and subsets (lymphocytes, neutrophils, eosinophils): Eosinophils reported as 0.15 10^9/L
